# Assay System: T1, NativeRPtag(large)_with_Tags_and_Cys (Thermoanaerobacter tengcongensis)
# T1 construct: Unlabeled in anisotropy assays; coupled through the engineered N-terminal Cys to SulfoLink agarose or maleimide plates in column, pull-down and ELISA assays
# T1 chain: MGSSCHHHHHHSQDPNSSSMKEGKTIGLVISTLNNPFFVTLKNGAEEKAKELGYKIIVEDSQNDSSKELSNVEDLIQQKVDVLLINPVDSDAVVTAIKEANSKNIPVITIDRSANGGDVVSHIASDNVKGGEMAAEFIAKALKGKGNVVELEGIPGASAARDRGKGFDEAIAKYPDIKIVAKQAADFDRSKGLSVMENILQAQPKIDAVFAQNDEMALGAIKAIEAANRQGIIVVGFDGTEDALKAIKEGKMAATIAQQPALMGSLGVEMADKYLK
# Test: fluorescence anisotropy
No end group written: not given here. *: point of attachment. RhodamineB = CCN(CC)c1ccc2c(-c3ccccc3C(=O)*)c3ccc(=[N+](CC)CC)cc-3oc2c1
Lab note: cut-off is 1 nM. Strictly less in Kd is true. Exactly 1 nM or more is false.

{"Binder": "RhodamineB-FIPAELKLITKE [RPtag(small) Nd6, Cd3]", "Class": "false"}
{"Binder": "RhodamineB-EKIPNFIPAELKLITKENVQ [RPtag(small) Nd1]", "Class": "true"}
{"Binder": "RhodamineB-ELKLITKA [RPtag(small) Nd10, Cd3, e18a]", "Class": "false"}
{"Binder": "RhodamineB-GEKIPNFAPAELKLITKENVQ [RPtag(small) i8a]", "Class": "false"}
{"Binder": "RhodamineB-ELKLITKENVQ [RPtag(small) Nd10]", "Class": "false"}
{"Binder": "RhodamineB-PNFIPAELKLITKENVQ [RPtag(small) Nd4]", "Class": "true"}

Now consider a different binder.
Task: Say whether its Kd is strictly beneath 1 nM. Entry: RhodamineB-GEKIPNFIPAELKLITKANVQ [RPtag(small) e18a]
Output: true
